Values from PubChem BioAssay (Tox21)

Assay: qHTS assay to identify small molecule agonists of the NFkB signaling pathway (AID 1159509)
Settings: NFkB-bla ME-180 cells, beta-lactamase FRET ratio, 5 h; series mostly up to 61 µM
Excerpt: National Center for Advancing Translational Sciences [NCATS] NIH Chemical Genomics Center [NCGC] U.S. Environmental Protection Agency [EPA] National Institutes of Environmental Health Sciences [NIEHS] National Toxicology Program [NTP] U.S. Food and Drug Administration [FDA] Transcription factors and their stimulated target gene expression play pivotal roles across many cellular processes including responses to environmental stimuli. […]
Inconclusive results are not listed. Active and inactive are the calls of the source. The call rests on the fitted dose curve; in most records, active means well fitted curve in the direction sought with a large enough effect in the signal ratio in the repeat runs (not every such curve was filed as active); inconclusive means weak or mixed curves, or a change in a side signal; inactive means no such curve, though single readings can be large or run the other way; the % refers to the signal ratio.
quantity-kind: outcome

// worked examples, outcome included
structure-smiles: O=C(O)Cc1cccc2ccccc12
quantity-kind: outcome
test-result: inactive
//
structure-smiles: CCN(CC)CCOC(=O)c1ccc(N)cc1
quantity-kind: outcome
test-result: inactive
//
structure-smiles: CCCCOC(=O)CCCCCCCCC(=O)OCCCC
quantity-kind: outcome
test-result: inactive
//
structure-smiles: NC(N)=NC(N)=NCCc1ccccc1
quantity-kind: outcome
test-result: inactive
//
structure-smiles: Cc1cccc2ccccc12
quantity-kind: outcome
test-result: inactive
//
structure-smiles: CCN1CCCC1=O
quantity-kind: outcome
test-result: inactive
//
structure-smiles: COc1cc(C=O)ccc1O
quantity-kind: outcome
test-result: inactive

Could you now consider this next compound?
Given CCCCNC(=O)NS(=O)(=O)c1ccc(N)cc1 , state its recorded outcome.
inactive
